The origin of these recorded values is ChEMBL document CHEMBL4393729.

test: Half life in human at 25 to 400 mg
quantity-kind: half-life
Could you write the number and then its unit?

Req: Quick one: half-life for OCCOCCN1CCN(C2=Nc3ccccc3Sc3ccccc32)CC1 ?
Resp: 360 min

* * *

test: Half life in human at 8 mg treated 30 mins before bedtime; assay type: ADME; conditions: in vivo
quantity-kind: half-life

Req: Quick one: half-life for CCC(=O)NCC[C@@H]1CCc2ccc3c(c21)CCO3 ?
Resp: 1 to 2.6 h

* * *

assay: Half life in human at 1 to 3 mg; type: ADME
quantity-kind: half-life (h)
Just the number in h, nothing appended.

Req: Quick one: half-life for CN1CCN(C(=O)O[C@H]2c3nccnc3C(=O)N2c2ccc(Cl)cn2)CC1 ?
Resp: 6

* * *

assay: Half life in human at 1 to 6 mg; assay type: ADME
quantity-kind: half-life

Req: Quick one: half-life for CN(C)CC/C=C1\c2ccccc2COc2ccccc21 [E-DOXEPIN] ?
Resp: 480 to 1440 min

* * *

assay: Half life in human at 5 mg administered three times in a day; assay type: ADME; settings: in vivo
quantity-kind: half-life

Req: Quick one: half-life for NC[C@H](CC(=O)O)c1ccc(Cl)cc1 ?
Resp: 2 to 4 h

* * *

test: Half life in human at 300 mg bid; type: ADME; conditions: in vivo
quantity-kind: half-life

Req: Quick one: half-life for CC[C@H]1OC(=O)[C@H](C)[C@@H](O[C@H]2C[C@@](C)(OC)[C@@H](O)[C@H](C)O2)[C@H](C)[C@@H](O[C@@H]2O[C@H](C)C[C@H](N(C)C)[C@H]2O)[C@](C)(OC)C[C@@H](C)C(=O)[C@H](C)[C@@H](O)[C@]1(C)O ?
Resp: 5 to 7 h

* * *

test: Half life in human at 75 to 300 mg; format: ADME
quantity-kind: half-life

Req: Quick one: half-life for NC(=O)OC[C@H](N)Cc1ccccc1 [SOLRIAMFETOL] ?
Resp: 6 to 8 h

* * *

test: Half life in human at 2250 mg administered as two doses; assay type: ADME; conditions: in vivo
quantity-kind: half-life (min)
Just the number in min, nothing appended.

Req: Quick one: half-life for O=C([O-])CCCO.[Na+] [SODIUM OXYBATE] ?
Resp: 36

* * *

experiment: Half life in human at 5 to 20 mg; type: ADME
quantity-kind: half-life

Req: Quick one: half-life for Cc1ccc(-n2nccn2)c(C(=O)N2CCN(c3nc4cc(Cl)ccc4o3)CC[C@H]2C)c1 ?
Resp: 9 to 13 h

* * *

assay: Half life in human up to 3600 mg; format: ADME
quantity-kind: half-life

Req: Quick one: half-life for NCC1(CC(=O)O)CCCCC1 ?
Resp: 5 to 7 h

* * *

experiment: Half life in human at 5 to 10 mg; assay type: ADME
quantity-kind: half-life

Req: Quick one: half-life for Cc1ccc(-c2nc3ccc(C)cn3c2CC(=O)N(C)C)cc1 ?
Resp: 1.4 to 4.5 h

* * *

test: Oral bioavailability in human; format: ADME, organism-based; settings: in vivo
quantity-kind: bioavailability (%)
Just the number in %, nothing appended.

Req: Quick one: bioavailability for CCC(=O)NCC[C@@H]1CCc2ccc3c(c21)CCO3 ?
Resp: 1.8

* * *

Listing: half-life of selected molecules
experiment: Half life in human at 200 mg; assay type: ADME

>>> df
                                 molecule  quantity_kind  observed_value
0  NC(=O)C[S@@+]([O-])C(c1ccccc1)c1ccccc1      half-life            15 h

Continue with the next molecule.
Req: Quick one: half-life for NC(=O)C[S@+]([O-])C(c1ccccc1)c1ccccc1 [(S)-MODAFINIL] ?
Resp: 4 h

* * *

assay: Half life in human at 1 mg; type: ADME
quantity-kind: half-life

Req: Quick one: half-life for CCOC(=O)c1ncn2c1CN(C)C(=O)c1cc(F)ccc1-2 ?
Resp: 36 to 72 min

* * *

assay: Half life in human at 150 mg; type: ADME
quantity-kind: half-life (h)
Just the number in h, nothing appended.

Req: Quick one: half-life for NC(=O)C[S@@+]([O-])C(c1ccccc1)c1ccccc1 ?
Resp: 15

* * *

assay: Half life in human at 18 to 36 mg; type: ADME
quantity-kind: half-life (h)
Just the number in h, nothing appended.

Req: Quick one: half-life for Clc1ccc(CCCOCCCN2CCCCC2)cc1 ?
Resp: 10
